Assign Mean (FL1-H) to each entry below.
target: T1, human CD40 (human, UniProt P25942 21-277)
T1 construct: whole, on cells; also called huCD40; CD40 expressed on JY cells
T1 sequence (P25942 21-277): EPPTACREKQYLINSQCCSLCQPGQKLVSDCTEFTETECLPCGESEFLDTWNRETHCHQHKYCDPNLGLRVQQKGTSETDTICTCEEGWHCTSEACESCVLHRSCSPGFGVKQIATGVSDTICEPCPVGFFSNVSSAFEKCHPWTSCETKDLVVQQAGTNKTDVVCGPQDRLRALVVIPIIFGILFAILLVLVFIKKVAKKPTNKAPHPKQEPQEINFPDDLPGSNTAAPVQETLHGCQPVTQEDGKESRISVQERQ
measurement notes: FACS on JY cells expressing CD40; 100 µl PER.C6 transient supernatant harvested after 48 h (antibody concentration not equalised), FITC anti-human IgG 1/100; in the same figure Mock Control Mean 11.25 / Median 8.74, FACS control (secondary only) Mean 10.18 / Median 8.74 [Condt.]
Record the value in FL1-H, omitting the unit from your answer.

Measured Mean (FL1-H) of P45L variant of deimmunised 5D12 (antibody, human IgG4, V domains shown, VH on a human IgG4 backbone) VH: QVKLQESGPGLVKPSETLSITCTVSGFSISRYSVYWIRQPPGKGLEWMGMMWGGGSTDYSTSLKSRLTISKDTSKSQVSLKMNSLRTDDTAMYYCVRTDGDYWGQGTTVTVSS VL: ELQLTQSPLSLPVTLGQPASISCRSSQSLANSNGNTYLHWYLQRPGQSPRLLIYKVSNRFSGVPDRFSGSGSGTDFTLKISRVEAEDVGVYYCSQSTHVPWTFGGGTKLEIKR : 82.5

Please fill in: Mean (FL1-H) reported for T68S variant of deimmunised 5D12 (antibody, human IgG4, V domains shown, VH on a human IgG4 backbone) VH: QVKLQESGPGLVKPSETLSITCTVSGFSISRYSVYWIRQPPGKGPEWMGMMWGGGSTDYSTSLKSRLSISKDTSKSQVSLKMNSLRTDDTAMYYCVRTDGDYWGQGTTVTVSS VL: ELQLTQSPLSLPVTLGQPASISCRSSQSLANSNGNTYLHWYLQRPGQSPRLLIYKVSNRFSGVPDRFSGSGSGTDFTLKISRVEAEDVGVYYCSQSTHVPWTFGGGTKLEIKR = 35.2

Measured Mean (FL1-H), S79F variant of deimmunised 5D12 (antibody, human IgG4, V domains shown, VH on a human IgG4 backbone) VH: QVKLQESGPGLVKPSETLSITCTVSGFSISRYSVYWIRQPPGKGPEWMGMMWGGGSTDYSTSLKSRLTISKDTSKSQVFLKMNSLRTDDTAMYYCVRTDGDYWGQGTTVTVSS VL: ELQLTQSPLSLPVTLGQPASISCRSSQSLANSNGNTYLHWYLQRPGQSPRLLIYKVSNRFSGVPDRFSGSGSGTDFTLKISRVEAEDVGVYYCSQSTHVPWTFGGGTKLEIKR : 96.4

Entry STS60NSA variant of deimmunised 5D12 (antibody, human IgG4, V domains shown, VH on a human IgG4 backbone) VH: QVKLQESGPGLVKPSETLSITCTVSGFSISRYSVYWIRQPPGKGPEWMGMMWGGGSTDYNSALKSRLTISKDTSKSQVSLKMNSLRTDDTAMYYCVRTDGDYWGQGTTVTVSS VL: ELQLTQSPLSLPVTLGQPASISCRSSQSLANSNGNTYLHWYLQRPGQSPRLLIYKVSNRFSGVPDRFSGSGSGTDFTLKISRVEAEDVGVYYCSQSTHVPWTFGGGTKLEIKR — recorded Mean (FL1-H) = 62.4

Briefly, Mean (FL1-H) measured for T108S variant of deimmunised 5D12 (antibody, human IgG4, V domains shown, VH on a human IgG4 backbone) VH: QVKLQESGPGLVKPSETLSITCTVSGFSISRYSVYWIRQPPGKGPEWMGMMWGGGSTDYSTSLKSRLTISKDTSKSQVSLKMNSLRTDDTAMYYCVRTDGDYWGQGTSVTVSS VL: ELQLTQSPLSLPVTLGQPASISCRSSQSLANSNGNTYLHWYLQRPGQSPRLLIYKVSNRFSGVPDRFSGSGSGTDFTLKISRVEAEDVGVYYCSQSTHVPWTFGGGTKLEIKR : 99

M48L variant of deimmunised 5D12 (antibody, human IgG4, V domains shown, VH on a human IgG4 backbone) VH: QVKLQESGPGLVKPSETLSITCTVSGFSISRYSVYWIRQPPGKGPEWLGMMWGGGSTDYSTSLKSRLTISKDTSKSQVSLKMNSLRTDDTAMYYCVRTDGDYWGQGTTVTVSS VL: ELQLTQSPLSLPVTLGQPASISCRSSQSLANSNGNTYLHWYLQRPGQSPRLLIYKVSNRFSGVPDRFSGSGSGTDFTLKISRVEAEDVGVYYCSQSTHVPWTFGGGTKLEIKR yielded Mean (FL1-H) of 80.3

Data credit: patent US8669352
